Cited source for all entries: patent US20210388087A1

# Tested on: T1, Human CD3eg linker (human)
# T1 construct: Single chain: epsilon and gamma subunits of human CD3 joined by a 29-mer linker, Flag-tag at the C-terminus; also called recombinant human CD3
# T1 chain: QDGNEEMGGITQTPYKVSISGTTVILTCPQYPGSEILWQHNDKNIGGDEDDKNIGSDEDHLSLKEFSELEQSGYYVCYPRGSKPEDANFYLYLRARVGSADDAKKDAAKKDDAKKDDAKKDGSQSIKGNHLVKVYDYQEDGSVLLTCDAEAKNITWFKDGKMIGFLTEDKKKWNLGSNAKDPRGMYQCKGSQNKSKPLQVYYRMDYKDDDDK
# Method notes: Biacore SPR, vs template H183/L072
Exercise: for every item that follows, state its recorded fold change of affinity.
Number in fold, nothing else.

Entry H183/L072 VH Q50F (antibody, name in Kabat numbering, V domains shown) VH: QVQLVESGGGLVQPGRSLRLSCAASGFTFSNAWMHWVRQAPGKGLEWVAFIKDKGNAYAAYYAPSVKGRFTISRDDSKNSIYLQMNSLKTEDTAVYYCHYVHYASASTVLPAFGVDAWGQGTTVTVSS VL: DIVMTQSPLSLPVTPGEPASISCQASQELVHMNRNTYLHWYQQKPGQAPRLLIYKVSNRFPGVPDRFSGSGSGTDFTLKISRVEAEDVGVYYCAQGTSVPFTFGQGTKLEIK — recorded fold change of affinity = 0.3

Entry H183/L072 VH N53E (antibody, name in Kabat numbering, V domains shown) VH: QVQLVESGGGLVQPGRSLRLSCAASGFTFSNAWMHWVRQAPGKGLEWVAQIKDKGEAYAAYYAPSVKGRFTISRDDSKNSIYLQMNSLKTEDTAVYYCHYVHYASASTVLPAFGVDAWGQGTTVTVSS VL: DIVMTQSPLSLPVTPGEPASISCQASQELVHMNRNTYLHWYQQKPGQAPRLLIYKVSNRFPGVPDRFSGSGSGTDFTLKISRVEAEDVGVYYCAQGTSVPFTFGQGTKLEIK — recorded fold change of affinity = 0.5

Entry H183/L072 VH W33E (antibody, name in Kabat numbering, V domains shown) VH: QVQLVESGGGLVQPGRSLRLSCAASGFTFSNAEMHWVRQAPGKGLEWVAQIKDKGNAYAAYYAPSVKGRFTISRDDSKNSIYLQMNSLKTEDTAVYYCHYVHYASASTVLPAFGVDAWGQGTTVTVSS VL: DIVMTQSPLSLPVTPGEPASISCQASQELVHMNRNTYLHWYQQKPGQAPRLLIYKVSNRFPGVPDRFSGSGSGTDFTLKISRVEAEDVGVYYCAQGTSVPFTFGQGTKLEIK — recorded fold change of affinity = 0
